Measured EC50 by item
- Tested on: NL-RLuc virus (recombinant HIV NL4-3 with Renilla Luciferase gene) in MT-2 cells
- Experiment description: Inhibition of HIV replication (NL-RLuc luciferase reporter virus in MT-2 cells)
- Format: cell-based
- Condition description: {}
Numbers only; they are read as nM.

See these solved cases before continuing.
Molecule | Parameter | Endpoint unit | Val
Cc1ccccc1-c1cccc(-c2cn3cc(C)c([C@H](OC(C)(C)C)C(=O)O)c(-c4cc(F)c5c(c4C)CCCO5)c3n2)c1 (single isomer, unassigned) [Example 6] | EC50 | nM | 560
Cc1cn2cc(-c3cccc(-c4ccc(F)cc4)c3)nc2c(-c2cc(F)c3c(c2C)CCCO3)c1[C@H](OC(C)(C)C)C(=O)O (single isomer, unassigned) [Example 2] | EC50 | nM | 187
Cc1cn2cc(-c3cccc(-c4ccc(F)cc4)c3)nc2c(-c2cc(F)c3c(c2C)CCCO3)c1[C@H](OC(C)(C)C)C(=O)O (single isomer, unassigned) [Example 1] | EC50 | nM | 16

Form field EC50, entry Cc1ccccc1-c1cccc(-c2cn3cc(C)c([C@H](OC(C)(C)C)C(=O)O)c(-c4cc(F)c5c(c4C)CCCO5)c3n2)c1 (single isomer, unassigned) [Example 5] : 34
